# TGT: BRAF G466V (Homo sapiens, UniProt P15056, G466V)
# Construct: Horizon Discovery (HCT-116 BRAF−/− cells); host or cells: HCT-116 BRAF−/− cells, clone 8, lentiviral transduction
# Sequence (P15056 whole entry G466V): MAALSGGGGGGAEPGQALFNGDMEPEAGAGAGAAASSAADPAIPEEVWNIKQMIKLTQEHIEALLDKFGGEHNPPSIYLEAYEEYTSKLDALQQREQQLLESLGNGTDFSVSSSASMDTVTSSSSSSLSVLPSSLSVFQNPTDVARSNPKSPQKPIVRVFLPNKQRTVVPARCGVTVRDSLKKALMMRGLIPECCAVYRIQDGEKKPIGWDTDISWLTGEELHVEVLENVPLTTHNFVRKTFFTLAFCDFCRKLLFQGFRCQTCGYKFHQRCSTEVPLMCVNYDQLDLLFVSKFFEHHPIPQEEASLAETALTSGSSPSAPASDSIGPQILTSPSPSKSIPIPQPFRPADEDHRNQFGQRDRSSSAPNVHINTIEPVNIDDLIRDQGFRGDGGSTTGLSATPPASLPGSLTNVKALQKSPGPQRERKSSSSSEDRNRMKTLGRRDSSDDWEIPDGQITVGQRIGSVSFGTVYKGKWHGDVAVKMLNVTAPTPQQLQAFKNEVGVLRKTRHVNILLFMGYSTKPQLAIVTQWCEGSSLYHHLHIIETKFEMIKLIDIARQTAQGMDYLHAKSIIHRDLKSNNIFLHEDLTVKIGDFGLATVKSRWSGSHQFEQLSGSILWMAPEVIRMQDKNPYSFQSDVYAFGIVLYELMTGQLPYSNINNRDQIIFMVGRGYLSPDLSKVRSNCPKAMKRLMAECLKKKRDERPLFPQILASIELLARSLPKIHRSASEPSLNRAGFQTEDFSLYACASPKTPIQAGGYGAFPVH
# PROTOCOL_DETAILS: BRAF HiBiT degradation assay, C-terminal HiBiT-tagged BRAF G466V overexpressed in HCT-116 BRAF−/− cells (clone 8), Nano-Glo HiBiT Lytic assay
# Format: cell-based
# STUDY_CONDITIONS: BRAF G466V; DC50 at 50%: fitted conc. at Y=50
Parameter DC50: see the listing below.

COMPOUND	DC50
CCCS(=O)(=O)Nc1cccc(-c2nc(C(C)(C)C)sc2-c2ccnc(Nc3cnn(CC4CCN(C(=O)[C@H]5CC[C@H](Oc6ccc(C7CCC(=O)NC7=O)cc6)CC5)CC4)c3)n2)c1F (mixture of isomers)	> 0.5 µM
CCCS(=O)(=O)Nc1cccc(-c2cn(-c3ccc(N4CCN(CC5CCN(c6ccc(C7CCC(=O)NC7=O)cc6)CC5)CC4)cc3)nc2-c2ccncc2)c1F (racemic)	0.01 to 0.05 µM

query: Retrieve DC50 measured for CCN(C)S(=O)(=O)Nc1cccc(-c2nc(C)sc2-c2ccnc(Nc3ccc(N4CCN(C(=O)C5CCN(c6ccc(C7CCC(=O)NC7=O)cn6)CC5)CC4)cn3)n2)c1F (racemic) and print it.
result: > 0.5 µM

###

# TGT: BRAF V600E (Homo sapiens, UniProt P15056, V600E)
# Construct: endogenous C-terminal HiBiT fusion tag on BRAF V600E allele; endogenous in cells; host or cells: A375 clone 1F10 (CRISPR-Cas9 knock-in of the HiBiT tag; parental A375 from ATCC)
# Sequence (P15056 whole entry V600E, the tested form may be a part): as the sequence (P15056 whole entry G466V) above, with V466G, V600E counted along it
# PROTOCOL_DETAILS: BRAF HiBiT degradation assay, C-terminal HiBiT-tagged BRAF V600E A375 cells (clone 1F10), Nano-Glo HiBiT Lytic assay
# Assay type: cell-based
# STUDY_CONDITIONS: A-375; A375 (BRAF V600E); percentage protein degraded at maximal compound effect relative to DMSO
QUANTITY_NAME: Dmax

Worked cases, Dmax given:
COMPOUND	RESULT
CCCS(=O)(=O)Nc1cccc(-c2nc(C(C)(C)C)sc2-c2ccnc(Nc3ccc(N4CCN(CC5CCN(c6ccc(C7CCC(=O)NC7=O)cn6)CC5)CC4)c(F)c3)n2)c1F (racemic) [Compound 45]	> 70%
CCCS(=O)(=O)Nc1cccc(-c2cn(C3CCN(C(=O)C4(C)CCN(C(=O)C5CCN(c6ccc(C7CCC(=O)NC7=O)cn6)CC5)CC4)CC3)nc2-c2ccncc2)c1F (racemic) [Compound 8]	> 70%

query: Provide measured Dmax on BRAF V600E (Homo sapiens, UniProt P15056, V600E) for CCCS(=O)(=O)Nc1cccc(-c2nc(C(C)(C)C)sc2-c2ccnc(Nc3cccc(OC4CCN(C(=O)C[C@@H]5CCN(c6ccc(C7CCC(=O)NC7=O)cc6)C5)CC4)c3)n2)c1F (mixture of isomers) [Compound 92] please.
result: 30 to 70%

query: Provide measured Dmax on BRAF V600E (Homo sapiens, UniProt P15056, V600E) for CCCS(=O)(=O)Nc1cccc(-c2nc(C3CCN(CC4CCN(C(=O)[C@H]5CC[C@H](Oc6cccc(C7CCC(=O)NC7=O)c6)CC5)CC4)CC3)sc2-c2ccnc(N)n2)c1F (mixture of isomers) [Compound 223] please.
result: 30 to 70%

query: Provide measured Dmax on BRAF V600E (Homo sapiens, UniProt P15056, V600E) for CCCS(=O)(=O)Nc1cccc(-c2nc(C(C)(C)C)sc2-c2ccnc(NCC3CCN(CC4CCN(c5ccc([C@H]6CCC(=O)NC6=O)cc5)CC4)CC3)n2)c1F [Compound 145] please.
result: 30 to 70%

###

# TGT: BRAF D594G (Homo sapiens, UniProt P15056, D594G)
# Construct: Horizon Discovery (HCT-116 BRAF−/− cells); host or cells: HCT-116 BRAF−/− cells, clone 63, lentiviral transduction
# Sequence (P15056 whole entry D594G): as the sequence (P15056 whole entry G466V) above, with V466G, D594G counted along it
# PROTOCOL_DETAILS: BRAF HiBiT degradation assay, C-terminal HiBiT-tagged BRAF D594G overexpressed in HCT-116 BRAF−/− cells (clone 63), Nano-Glo HiBiT Lytic assay
# Format: cell-based
# STUDY_CONDITIONS: HCT-116; BRAF D594G; percentage protein degraded at maximal compound effect relative to DMSO
QUANTITY_NAME: Dmax

Worked cases, Dmax given:
MOLECULE	TGT	Dmax
CCN(C)S(=O)(=O)Nc1cccc(-c2nc(C(C)(C)C)sc2-c2ccnc(Nc3ccc(N4CCN(C(=O)CN5CCc6cc(C7CCC(=O)NC7=O)ccc6C5)CC4)c(F)c3)n2)c1F (racemic)	BRAF D594G (Homo sapiens, UniProt P15056, D594G)	30 to 70%
CCCS(=O)(=O)Nc1cccc(-c2nc(C3CCN(CC4CCN(C(=O)[C@H]5CC[C@H](Oc6ccc(C7CCC(=O)NC7=O)cc6)CC5)CC4)CC3)sc2-c2ccnc(N)n2)c1F (mixture of isomers)	BRAF D594G (Homo sapiens, UniProt P15056, D594G)	30 to 70%

Let us move to another entry and its Dmax.
query: Retrieve Dmax measured for CCCS(=O)(=O)Nc1cccc(-c2nc(C(C)(C)C)sc2-c2ccnc(Nc3cnn(CC4CCN(C(=O)[C@H]5CC[C@H](Oc6ccc(C7CCC(=O)NC7=O)cc6)CC5)CC4)c3)n2)c1F (mixture of isomers) and print it.
result: 30 to 70%

###

Parameter Dmax: see the listing below.
# TGT: BRAF G469A (Homo sapiens, UniProt P15056, G469A)
# Construct: Horizon Discovery (HCT-116 BRAF−/− cells); host or cells: HCT-116 BRAF−/− cells, clone 34, lentiviral transduction
# Sequence (P15056 whole entry G469A): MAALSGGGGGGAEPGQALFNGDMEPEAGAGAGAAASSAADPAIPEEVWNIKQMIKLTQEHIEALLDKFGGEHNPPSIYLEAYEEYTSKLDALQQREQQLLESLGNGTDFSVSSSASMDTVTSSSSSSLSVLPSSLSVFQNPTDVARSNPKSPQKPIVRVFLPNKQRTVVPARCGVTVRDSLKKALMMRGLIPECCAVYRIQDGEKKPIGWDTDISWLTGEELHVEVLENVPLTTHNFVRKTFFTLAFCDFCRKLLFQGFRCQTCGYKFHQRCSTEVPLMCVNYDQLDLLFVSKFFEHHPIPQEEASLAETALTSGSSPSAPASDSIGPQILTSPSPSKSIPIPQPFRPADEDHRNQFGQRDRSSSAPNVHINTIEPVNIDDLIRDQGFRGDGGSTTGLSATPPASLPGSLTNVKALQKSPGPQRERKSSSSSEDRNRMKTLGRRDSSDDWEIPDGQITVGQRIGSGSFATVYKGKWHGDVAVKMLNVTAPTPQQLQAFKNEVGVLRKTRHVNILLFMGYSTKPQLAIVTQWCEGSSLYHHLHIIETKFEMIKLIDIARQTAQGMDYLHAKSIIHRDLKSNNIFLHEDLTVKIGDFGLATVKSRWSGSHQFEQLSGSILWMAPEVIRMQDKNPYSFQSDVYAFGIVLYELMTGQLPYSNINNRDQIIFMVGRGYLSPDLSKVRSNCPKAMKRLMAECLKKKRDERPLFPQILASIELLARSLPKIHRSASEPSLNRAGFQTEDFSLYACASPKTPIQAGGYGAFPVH
# PROTOCOL_DETAILS: BRAF HiBiT degradation assay, C-terminal HiBiT-tagged BRAF G469A overexpressed in HCT-116 BRAF−/− cells (clone 34), Nano-Glo HiBiT Lytic assay
# Format: cell-based
# STUDY_CONDITIONS: BRAF G469A (Class 2), HCT-116 BRAF−/− cells; observed Dmax relative to DMSO control
# Protocol: An A375 cell line expressing a homozygous V600E mutation was purchased from ATCC (Manassas, VA, USA). […] HiBiT signal was measured by a Nano-Glo HiBiT Lytic assay (Promega cat. no. N3050). […] Luminesce units (LU) were read on an EnVision plate reader 2105 (Perkin Elmer). Percent protein remaining and viability remaining per sample were calculated as follows: […]

Worked cases, Dmax given:
COMPOUND	TGT	Dmax
O=C1CC[C@H](c2ccc(N3CCC(CN4CCN(c5ccc(-n6cc(-c7cc(Cl)cc(NS(=O)(=O)N8CC(F)C8)c7F)c(-c7ccncc7)n6)cc5)CC4)CC3)nc2)C(=O)N1 [Compound 331]	BRAF G469A (Homo sapiens, UniProt P15056, G469A)	> 70%
CCN(C)S(=O)(=O)Nc1cc(Cl)cc(-c2cn(-c3ccc(N4CCN(CC5CCN(c6ccc([C@H]7CCC(=O)NC7=O)cn6)CC5)CC4)cc3)nc2-c2ccncc2)c1F [Compound 309]	BRAF G469A (Homo sapiens, UniProt P15056, G469A)	> 70%
CCN(C)S(=O)(=O)Nc1cccc(-c2cn(-c3ccc(N4CCN(CC5CCN(c6ccc([C@@H]7CCC(=O)NC7=O)cn6)CC5)CC4)c(F)c3)nc2-c2ccncc2)c1F [Compound 380]	BRAF G469A (Homo sapiens, UniProt P15056, G469A)	30 to 70%

query: Retrieve Dmax measured for O=C1CCN(c2ccc(N3CCC(CN4CCN(c5ccc(-n6cc(-c7cc(Cl)cc(NS(=O)(=O)N8CC[C@@H](F)C8)c7F)c(-c7ccncc7)n6)cc5)CC4)CC3)nc2)C(=O)N1 [Compound 263] and print it.
result: 30 to 70%

query: Retrieve Dmax measured for CCCS(=O)(=O)Nc1cccc(-c2nc(C3CCC4(CC3)CN(C(=O)CC3CCN(C5CCN(c6ccc7c(c6)C(=O)N(C6CCC(=O)NC6=O)C7=O)CC5)CC3)C4)sc2-c2ccnc(N)n2)c1F (racemic) [Compound 247] and print it.
result: < 30%

query: Retrieve Dmax measured for CCC(C)S(=O)(=O)Nc1cc(Cl)cc(-c2cn(-c3ccc(N4CCN(CC5CCN(c6ccc([C@@H]7CCC(=O)NC7=O)cn6)CC5)CC4)cc3)nc2-c2ccncc2)c1F (mixture of isomers) [Compound 329] and print it.
result: > 70%

query: Retrieve Dmax measured for O=C1CCN(c2ccc(N3CCC(CN4CCN(c5ccc(-n6cc(-c7cc(Cl)cc(NS(=O)(=O)N8CC[C@@H](F)C8)c7F)c(-c7ccncc7)n6)cc5F)CC4)CC3)cc2)C(=O)N1 [Compound 365] and print it.
result: 30 to 70%

query: Retrieve Dmax measured for O=C1CC[C@H](c2ccc(N3CCC(CN4CCN(c5ccc(-n6cc(-c7cc(Cl)cc(NS(=O)(=O)N8CC[C@@H](F)C8)c7F)c(-c7ccncc7)n6)cc5F)CC4)CC3)cc2)C(=O)N1 [Compound 367] and print it.
result: > 70%

query: Retrieve Dmax measured for O=C1CCN(c2ccc(N3CCC(CN4CCN(c5ccc(-n6cc(-c7cc(Cl)cc(NS(=O)(=O)N8CC(F)C8)c7F)c(-c7ccncc7)n6)c(F)c5)CC4)CC3)cc2)C(=O)N1 [Compound 339] and print it.
result: < 30%

query: Retrieve Dmax measured for CCCS(=O)(=O)Nc1cccc(-c2nc(C3CCN(C(=O)C4CCN(C(=O)C5CCN(c6ccc(C7CCC(=O)NC7=O)cn6)CC5)CC4)CC3)sc2-c2ccnc(N)n2)c1F (racemic) [Compound 254] and print it.
result: 30 to 70%
